measurementTarget: UniProt:P97689
Sequence (P97689 whole entry): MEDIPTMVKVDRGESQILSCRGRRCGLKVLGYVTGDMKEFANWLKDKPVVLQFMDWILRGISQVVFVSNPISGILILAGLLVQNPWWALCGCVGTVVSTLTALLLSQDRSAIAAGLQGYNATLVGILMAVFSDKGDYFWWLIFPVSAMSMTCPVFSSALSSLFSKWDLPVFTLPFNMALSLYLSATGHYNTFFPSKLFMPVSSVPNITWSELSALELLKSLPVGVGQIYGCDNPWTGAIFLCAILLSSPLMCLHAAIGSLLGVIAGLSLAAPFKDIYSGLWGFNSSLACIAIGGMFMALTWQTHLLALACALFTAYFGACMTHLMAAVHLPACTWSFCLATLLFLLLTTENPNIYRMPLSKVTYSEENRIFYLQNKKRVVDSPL
assayReadout: IC50 (µM)

# sampleSmiles, assayReadout, readoutUnits, experimentalValue
measured = [
    ("COc1ccc(Cl)cc1S(=O)(=O)Nc1ccc(Oc2nc3ccccc3n3cnnc23)cc1", "IC50", "µM", 4),
]

P: CCCc1nnc2c(Oc3ccc(NS(=O)(=O)c4cc(Cl)ccc4OC)cc3)nc3ccccc3n12
Q: COc1ccc(-c2cccc(-c3ccn(Cc4csc(C)n4)n3)c2)nn1
Query :: // which entry reports the smaller IC50, P or Q ? Identify your pick by its label.
Result :: P
(P: 2 µM, Q: 31 µM)

----------
measurementTarget: Urea transporter 2 (Rattus norvegicus, UniProt Q62668)
Sequence (Q62668 whole entry): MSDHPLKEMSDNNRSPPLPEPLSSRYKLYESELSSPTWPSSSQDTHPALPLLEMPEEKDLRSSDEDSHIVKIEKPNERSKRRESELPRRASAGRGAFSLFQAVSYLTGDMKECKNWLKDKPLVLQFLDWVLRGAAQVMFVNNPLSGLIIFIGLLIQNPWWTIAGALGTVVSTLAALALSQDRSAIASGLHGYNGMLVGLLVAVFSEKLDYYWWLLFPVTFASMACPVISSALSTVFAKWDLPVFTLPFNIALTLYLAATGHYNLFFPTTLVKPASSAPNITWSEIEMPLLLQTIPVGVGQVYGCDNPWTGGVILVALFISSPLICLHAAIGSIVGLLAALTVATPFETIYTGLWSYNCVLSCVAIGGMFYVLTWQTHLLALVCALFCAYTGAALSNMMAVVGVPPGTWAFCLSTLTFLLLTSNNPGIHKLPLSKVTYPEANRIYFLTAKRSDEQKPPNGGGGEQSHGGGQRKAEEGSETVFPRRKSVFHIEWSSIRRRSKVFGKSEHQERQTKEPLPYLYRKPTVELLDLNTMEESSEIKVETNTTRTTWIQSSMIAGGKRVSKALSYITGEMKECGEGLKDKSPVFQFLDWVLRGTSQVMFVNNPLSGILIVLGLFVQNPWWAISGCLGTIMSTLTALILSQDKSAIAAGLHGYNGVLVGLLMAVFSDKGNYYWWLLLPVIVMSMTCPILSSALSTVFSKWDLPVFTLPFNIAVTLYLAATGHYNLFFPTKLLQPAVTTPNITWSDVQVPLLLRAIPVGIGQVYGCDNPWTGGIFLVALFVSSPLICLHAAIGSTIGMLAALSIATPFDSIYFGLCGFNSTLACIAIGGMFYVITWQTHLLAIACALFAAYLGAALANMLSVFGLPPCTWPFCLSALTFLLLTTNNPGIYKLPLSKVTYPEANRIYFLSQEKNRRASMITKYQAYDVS
assayOverview: Inhibition of rat UT-A1 expressed in MDCK cells incubated for 15 mins by fluorescence plate reader assay
assayReadout: IC50 (nM)

Some compounds with recorded IC50:
# sampleSmiles, IC50 (nM)
rows = [
    ("CCCc1nnc2c(Oc3ccc(NS(=O)(=O)c4cc(Cl)ccc4OC)cc3)nc3cc(F)c(F)cc3n12", 300),
    ("COc1ccc(-c2cccc(-c3ccn(Cc4csc(C)n4)n3)c2)nn1", 1500),
    ("COc1ccc(C)cc1S(=O)(=O)Nc1ccc(Oc2nc3ccccc3n3cnnc23)cc1", 1100),
    ("COc1ccc(C)cc1S(=O)(=O)Nc1ccc(Oc2nc3cc(F)c(F)cc3n3cnnc23)cc1", 1500),
]

P: COc1ccc(Cl)cc1S(=O)(=O)Nc1ccc(Oc2nc3ccccc3n3cnnc23)cc1
Q: COc1ccc(Cl)cc1S(=O)(=O)Nc1ccc(Oc2nc3cc(F)c(F)cc3n3cnnc23)cc1
Query :: Which has the higher IC50, P or Q ? Mark your answer with the label of the selected entry.
Result :: Q
(Q: 1200 nM, P: 800 nM)
